- Tested on: IGROV1 ovarian
- measurement.protocol: NCI tumour cell line growth inhibition, 48 h
measurement.kind: TGI (µM)
Report the figure in µM without appending any unit label.

Fc1ccc(C2CC(c3cccc(Nc4ccncc4)c3)=NN2c2cc(Cl)cc(Cl)c2)cc1 (stereo not given); 3.3

Continue with the next compound.
The reported TGI value, IGROV1 ovarian, for `COc1ccc(Nc2ncccc2/C=C/C(=O)c2cc(OC)c(OC)c(OC)c2)cc1` reads 5.31

====

- Tested on: OVCAR-4 ovarian
- measurement.protocol: NCI tumour cell line growth inhibition, 48 h
measurement.kind: TGI

CCOC(=O)/C(C#N)=C/c1ccc(CO)o1; > 100 µM

The value of TGI measured for the molecule `COc1ccc(C[C@H](N)C(=O)N2C[C@H](CO)C[C@H](n3cnc4c(N(C)C)ncnc43)C2)cc1` turned out to be > 100 µM

The value of TGI measured for the molecule `CO/C(=N\N=C\c1ccc(Cl)cc1Cl)c1ccncc1` turned out to be > 10 µM

The value of TGI measured for the molecule Oc1ccc2c(c1)CC[N+]1=C2CCC2CCCC21 (stereo not drawn) turned out to be > 100 µM

The value of TGI measured for the molecule N#Cc1c2ccccc2c2n1-c1ccccc1OC(c1ccccc1)C2=O (stereo not drawn) turned out to be 8.44 µM

The value of TGI measured for the molecule `O=[N+]([O-])c1cc(O)c(O)cc1-c1cn2ccsc2n1` turned out to be > 100 µM

The value of TGI measured for the molecule CC(=O)O[C@H]1CC[C@@]2(C)C(CC[C@]3(C)C2CC[C@]2(C)Oc4c(C)cc(O)cc4C[C@@H]23)C1(C)C (stereo partly drawn) turned out to be 22.2 µM

====

Readings of TGI for the listed molecules
- Test system: CAKI-1 renal
- measurement.protocol: NCI tumour cell line growth inhibition, 48 h

COc1ccc(/C=C2\CC3C4CC=C5C[C@@H](O)CC[C@]5(C)C4CC[C@]3(C)\C2=N\O)cc1OC (stereo not given in full); > 100 µM
O=C1OC2(C(F)(F)F)Oc3ccccc3CN2C12CCCCC2 (stereo not given); 56.1 µM
Cc1nccn1S(=O)(=O)c1ccc(Br)cc1Br; > 100 µM

The value of TGI measured for the molecule CC(NC1=NCCO1)c1cccc([N+](=O)[O-])c1 (stereo not given) turned out to be > 100 µM

The value of TGI measured for the molecule O=S1(=O)N(Cc2ccccc2)[C@@H](Cc2ccccc2)C2O[C@H]2[C@H](Cc2ccccc2)N1Cc1ccccc1 (stereo not given in full) turned out to be > 7.5 µM

The value of TGI measured for the molecule `CCOC(=O)c1cc2c(n1Cc1cc(OC)cc(OC)c1)-c1oncc1CCC2` turned out to be > 100 µM

The value of TGI measured for the molecule `CCON=C1C(C)(C)C(C)(C)C(C)(C)C1(C)C` turned out to be > 100 µM

The value of TGI measured for the molecule COc1ccc(-c2nsc3c2NC(=O)CC3c2ccc3c(c2)OCO3)cc1 (stereo not given) turned out to be > 100 µM

The value of TGI measured for the molecule `CCOC(=O)/C(C#N)=C/c1ccc(CO)o1` turned out to be > 100 µM

====

- System: HOP-62 NSCLC
- measurement.protocol: NCI tumour cell line growth inhibition, 48 h
measurement.kind: TGI (µM)
Report the figure in µM without appending any unit label.

Solved cases (4 shown):
CC(=N\O)/C(C)=N/O.CC(=N\O)/C(C)=N/O.CC(=N\O)/C(C)=N/O.CC(=N\O)/C(C)=N/O.[Cu].[Cu]; 64.8
O=C1c2ccccc2C(=O)c2c1ccc1c2N=C(c2ccc(F)cc2)CC(c2ccc(Cl)c(Cl)c2)N1 (stereo unspecified); 58.2
OCCCCC#Cc1ccccc1C#Cc1ccccc1F; 26.1
N#CC(C#N)=Cc1c(O)ccc2ccccc12; 50.2

Continue with the next compound.
The value of TGI measured for the compound `CC1=C(SCc2ccccc2)C(=O)c2ccccc2C1=O` turned out to be 33.5
